kon values for the binders below.
Target: T1, mouse IL-17A (mouse, UniProt Q62386 26-158, limits assumed)
T1 construct: In SPR it was injected in solution, and no biotinylation is mentioned there; also called mIL-17A; mIL17A
T1 sequence (looked up): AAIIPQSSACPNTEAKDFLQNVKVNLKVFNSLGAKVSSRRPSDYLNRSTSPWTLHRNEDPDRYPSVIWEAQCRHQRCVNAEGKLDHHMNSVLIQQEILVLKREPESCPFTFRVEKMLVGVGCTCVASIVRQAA
Experiment: SPR (ProteOn XPR-36), clone amine-coupled on chip, mIL-17A in solution, 1:1 Langmuir fit
Please answer in the form of a number followed by its unit of measurement.

// query Give its kon value. Item: TP1KR9P62-D8 (designed binder, also called TCL14-His fusion protein) MLPAPKNLVVSRVTEDSARLSWTAPDAAFDSFAIEYFEDWWSGEAIVLTVPGSERSYDLTGLKPGTEYGVSIRGVKGGLASPPLSAIFTT
// result 381000 M⁻¹ s⁻¹

Continuing:
// query Quick one: kon of TP1KR9P61-A7 (designed binder, also called TCL14-His fusion protein) MLPAPKNLVVSRVTEDSARLSWTAPDAAFDSFAIEYFEDWWSGEAIVLTVPGSERSYDLTGLKPGTEYSVSIRGVKGGYPSSPLSAIFTT ?
// result 82000 M⁻¹ s⁻¹

// query Sample TP1KR9P61-G4 (designed binder, also called TCL14-His fusion protein) MLPAPKNLVVSRVTEDSARLSWTAPDAAFDSFAIEYFEDWWSGEAIVLTVPGSERSYDLTGLKPGTEYAVSIRGVKGGYPSAPLSAIFTT — what was its kon?
// result 162000 M⁻¹ s⁻¹
